# measurement target: A1 adenosine receptors (Rattus norvegicus)
# Construct: A1 adenosine receptors in rat cerebral cortical membranes; from tissue; host or cells: rat cerebral cortex membranes
# Sequence (P25099 whole entry): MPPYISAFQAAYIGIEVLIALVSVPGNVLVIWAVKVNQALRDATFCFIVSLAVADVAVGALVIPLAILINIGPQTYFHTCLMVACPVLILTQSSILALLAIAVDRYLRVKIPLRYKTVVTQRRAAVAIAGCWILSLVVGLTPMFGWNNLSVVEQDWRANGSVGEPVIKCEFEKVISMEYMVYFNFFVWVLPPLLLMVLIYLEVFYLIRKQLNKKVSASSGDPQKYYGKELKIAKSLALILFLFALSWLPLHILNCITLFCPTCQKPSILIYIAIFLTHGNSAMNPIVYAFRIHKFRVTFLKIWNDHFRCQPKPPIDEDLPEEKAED
# method: Inhibition of binding of [3H]N6-phenylisopropyladenosine to A1 adenosine receptors in rat cerebral cortical membranes
assay readout: pKi
Numbers only, as −log10 of the molar value.

Query: Quick one: pKi for "CCCn1c(=O)c2nc(-c3ccc(OCC(=O)NCCNC(=O)CCCCCCC(=O)ON4C(=O)CCC4=O)cc3)[nH]c2n(CCC)c1=S" ?
Result: 7.47

---

# measurement target: A1 adenosine receptors (Rattus norvegicus)
# Construct: A1 adenosine receptors in rat cerebral cortical membranes; from tissue; host or cells: rat cerebral cortex membranes
# method: Inhibition of binding of [3H]N6-phenylisopropyladenosine to A1 adenosine receptors in rat cerebral cortical membranes
# condition notes: ratio of A2 (rat striatum) to A1 (rat cortex) Ki
Mark each entry t if its Ki (A2)/Ki (A1) sits below 60, and f for all others.

{"columns": ["compound", "class label"],
 "data": [
  ["Cn1c(=O)c2[nH]c(-c3ccsc3)nc2n(C)c1=O [Compound 18]", "t"]
]}

Query: Threshold test, Ki (A2)/Ki (A1) < 60: Cn1c(=O)c2[nH]c(C3CCCC3)nc2n(C)c1=S [Compound 13]
Result: f

Query: Threshold test, Ki (A2)/Ki (A1) < 60: Cn1c(=O)c2nc(-c3ccoc3)[nH]c2n(C)c1=O [Compound 16, reference compound]
Result: t
